test system: myeloid leukemia patient primary cells Pat.5; experiment: area under dose-response curve (viability, 1 nM-10 uM) (fraction (0-1)); higher = more sensitive; conditions: 72 h
area under dose-response curve values, listed per item
parameter: area under dose-response curve

[[record]]
chemical_smiles = "O=C1C(SCCO)=C(SCCO)C(=O)c2ccccc21"
parameter = "area under dose-response curve"
assay_value = 0.455

[[record]]
chemical_smiles = "CO[C@H]1C[C@@H]2CC[C@@H](C)[C@@](O)(O2)C(=O)C(=O)N2CCCC[C@H]2C(=O)O[C@H]([C@H](C)C[C@@H]2CC[C@@H](OCCO)[C@H](OC)C2)CC(=O)[C@H](C)/C=C(\\C)[C@@H](O)[C@@H](OC)C(=O)[C@H](C)C[C@H](C)/C=C/C=C/C=C/1C"
parameter = "area under dose-response curve"
assay_value = 0.808

[[record]]
chemical_smiles = "Cn1cc(-c2ccncc2)c(-c2ccc(OCc3ccc4ccccc4n3)cc2)n1"
parameter = "area under dose-response curve"
assay_value = 0.938

[[record]]
chemical_smiles = "O=C(O)CC[N+](=O)[O-]"
parameter = "area under dose-response curve"
assay_value = 0.168

[[record]]
chemical_smiles = "CCN(CC)C(=S)SSC(=S)N(CC)CC"
parameter = "area under dose-response curve"
assay_value = 0.303

[[record]]
chemical_smiles = "Cc1[nH]nc(C(F)(F)F)c1Cc1sc2c(c1C(=O)N1C[C@](C)(O)CO1)c(=O)n(C)c(=O)n2C(C)C"
parameter = "area under dose-response curve"
assay_value = 0.149


* * *

tested on: HL-60; test: cell viability (% survival relative to DMSO control); higher = less cytotoxic; details: 0.1 µM; 72 h; co-treatment: DMSO vehicle
parameter: cell viability

[[record]]
compound = "C=CCN(C)CCCCCCOc1ccc(C(=O)c2ccc(Br)cc2)c(F)c1.O=C(O)/C=C/C(=O)O [Ro 48-8071 fumarate]"
parameter = "cell viability"
assay_value = "107%"

[[record]]
compound = "CN(CCOc1ccc(Cc2sc(O)nc2O)cc1)c1ccccn1"
parameter = "cell viability"
assay_value = "102%"

[[record]]
compound = "CC(C)CC(=O)N[C@H](C(=O)N[C@H](C(=O)N[C@@H](CC(C)C)[C@@H](O)CC(=O)N[C@@H](C)C(=O)N[C@@H](CC(C)C)[C@@H](O)CC(=O)O)C(C)C)C(C)C"
parameter = "cell viability"
assay_value = "98.4%"

[[record]]
compound = "Cc1nc(-c2ccccc2)sc1C(=O)Nc1ccc(S(N)(=O)=O)cc1"
parameter = "cell viability"
assay_value = "100%"

[[record]]
compound = "CCN(CC)C(=S)SSC(=S)N(CC)CC"
parameter = "cell viability"
assay_value = "105%"

[[record]]
compound = "CCc1oc2ccccc2c1C(=O)c1cc(Br)c(O)c(Br)c1"
parameter = "cell viability"
assay_value = "101%"

[[record]]
compound = "Cc1ccc(-c2cc(C(F)(F)F)nn2-c2ccc(S(N)(=O)=O)cc2)cc1"
parameter = "cell viability"
assay_value = "100%"

[[record]]
compound = "CCCCCCCC/C=C\\CCCCCCCC(=O)Nc1ccccc1 [Octadec-9-Enoic Acid Phenylamide]"
parameter = "cell viability"
assay_value = "103%"

[[record]]
compound = "CCc1c(C(=O)C(N)=O)c2c(OCC(=O)O)cccc2n1Cc1ccccc1"
parameter = "cell viability"
assay_value = "103%"

[[record]]
compound = "Cc1c(Cl)cccc1S(=O)(=O)Nc1nc(CC(=O)N2CCN(C)CC2)cs1"
parameter = "cell viability"
assay_value = "98.9%"

[[record]]
compound = "O=C(O)CC[N+](=O)[O-]"
parameter = "cell viability"
assay_value = "107%"

[[record]]
compound = "C[C@H]1c2cccc(O)c2C(=O)C2C(=O)[C@]3(O)C(=O)C(C(N)=O)C(=O)[C@@H](N(C)C)[C@@H]3[C@@H](O)[C@@H]21 (stereo partly specified)"
parameter = "cell viability"
assay_value = "104%"

[[record]]
compound = "O=c1c(-c2ccc(O)cc2)coc2cc(O[C@@H]3O[C@H](CO)[C@@H](O)[C@H](O)[C@H]3O)ccc12"
parameter = "cell viability"
assay_value = "102%"

[[record]]
compound = "c1cc(-c2cnn3cc(-c4ccc(OCCN5CCCCC5)cc4)cnc23)ccn1"
parameter = "cell viability"
assay_value = "99.9%"

[[record]]
compound = "Cc1[nH]nc(C(F)(F)F)c1Cc1sc2c(c1C(=O)N1C[C@](C)(O)CO1)c(=O)n(C)c(=O)n2C(C)C"
parameter = "cell viability"
assay_value = "97.9%"

[[record]]
compound = "O=C(NCCN1CCC(n2c(O)nc3ccccc32)CC1)c1cc2cc(F)ccc2[nH]1"
parameter = "cell viability"
assay_value = "104%"

